Where do the numbers come from? From patent US9714265B2.

Measurement Protocol: pH-dependent 1D FTIR / 2D IR spectroscopy of KP1212 in aqueous solutions (pKa)
Format: physicochemical
Test Parameters: aqueous (D2O) solutions, pH* varied from 1.6 to 13.9; 1D and/or 2D IR spectroscopy, 25° C.
Reported Endpoint: pKa

Short answer for NC1=NC(=O)N([C@H]2C[C@H](O)[C@@H](CO)O2)CN1 [KP1212, 5-aza-5,6-dihydro-2′-deoxycytidine] : pKa was ~7
